# Tested on: Fibrinogen (Alexa647-labelled)
# experimentDescription: fibrinogen binders on compound microarrays, profiling panel, artefact control for SMM control-protein annotation, biochemical, small-molecule microarray, 635/667 nm fluorescence (AID 1131);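 further: z-score merges 667 nm fluorescence with per-spot signal-to-noise over triplicate slides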
# experimentalContext: fibrinogen-A647 binding fluorescence, higher = more signal
Listed below: composite z-score values for each entry.
Reply briefly: the number, and no unit.

• O=C1C2C=CC(C(O)c3ccc(F)cc3)N(Nc3ccccc3)C2C(=O)N1c1ccccc1 (centres undefined) = 0.266

Request: Report composite z-score for "COCCOC(=O)N1C(=O)[C@@]2(c3cc(C#CCC(C(=O)OC)C(=O)OC)ccc31)[C@H](C(=O)N1CCCCCCC1)[C@H]1C(=O)O[C@H](c3ccccc3)[C@H](c3ccccc3)N1[C@@H]2c1ccc(OCCO)cc1" tested on Fibrinogen (Alexa647-labelled).
Result: 0.965

Request: Test system Fibrinogen (Alexa647-labelled); read-out composite z-score; what value for O=C1C2C=CC(C(O)c3ccc(B(O)O)cc3)N(Nc3ccccc3)C2C(=O)N1c1ccccc1 (centres undefined) ?
Result: -0.0877

Request: Enter reported composite z-score observed with Fibrinogen (Alexa647-labelled) for "COCCOC(=O)N1C(=O)[C@@]2(c3cc(C#CCNC(N)=O)ccc31)[C@H](c1ccc(O)cc1)N1[C@H](c3ccccc3)[C@H](c3ccccc3)OC(=O)[C@H]1[C@@H]2C(=O)Nc1nc2ccccc2s1"
Result: 0.558

----------
# experimentDescription: small-molecule microarray binders of probe aCHRDL2, primary screen, biochemical, biotinylated probe, 635/667 nm fluorescence (AID 1100)
# experimentalContext: higher = more signal
measuredAttribute: composite z-score
// no unit, no text: just the number

# example entries with known answers
* O=C(CS)NCCCCCCNC(=O)[C@H]1C[C@H]2C(=O)NCC(=O)N2[C@H]1c1ccc(O)cc1 | 0.694
* CC(C)C(=C=CC[C@@H](O)c1ccccc1OCCO)C[C@@H](O)c1ccccn1 | -0.448
* O=C1OCCC=C[C@H]2OC34C=CCN(Cc5ccccc5)C(=O)[C@H]3N(CCCO)C(=O)[C@@H]4C12 (stereo partly drawn) | -0.182
* [N-]=[N+]=NCc1ccccc1C[C@@]1(C(=O)N2CCOCC2)N=C(c2ccc(OCCCO)cc2)O[C@@H]1c1ccccc1CN=[N+]=[N-] | 1.37
* C=C(COC)C(=O)CC[C@@H](OC(=O)c1cccnc1)c1ccc(CO)o1 | -0.237
* [N-]=[N+]=Nc1ccccc1[C@H]1OC(c2ccc(OCCCO)cc2)=N[C@@]1(CCS(=O)(=O)c1ccccc1)C(=O)O | 1.14
* CCCNC(=O)[C@@H]1c2ccccc2C(=O)N(Cc2ccccc2)[C@H]1c1ccc(CO)cc1 | 0.933

Request: What does the data say about its composite z-score? Entry: "C=CC[C@@H](OC(=O)Nc1ccc(OC)cc1)c1ccc(O)c2ccccc12"
Result: -0.0826

----------
Below, each entry is listed alongside its reported composite z-score.
# experimentDescription: anti-His antibody binders, primary screen, artefact control for SMM control protein annotation, biochemical, small-molecule microarray, 635 nm fluorescence (AID 1128);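 further: score merges feature fluorescence with signal-to-noise for each printed compound spot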
# experimentalContext: anti-His Alexa647 antibody binding, higher = more signal
Reply with just the number.

• COc1ccc([Si](C)(C)[C@@H]2[C@@H](CCn3cc([C@H](O)c4ccccc4)nn3)O[C@]3(C(=O)N(Cc4ccc(N5C(=O)c6cccc7cccc5c67)cc4)c4ccccc43)[C@H]2C)cc1 = 0.448

Request: # input molecule: CS(=O)(=O)CCOC(=O)C1=CC(CCCO)=CC(c2cccs2)N(Cc2cc3c(cc2Br)OCO3)C=C1C(=O)OCCS(C)(=O)=O (configuration not stated) ; wanted: its composite z-score
Result: 1.16

Request: Could you tell me which composite z-score is on file for "[N-]=[N+]=NCc1ccccc1[C@@H]1OC(c2ccc(OCCCO)cc2)=N[C@]1(Cc1ccccc1N=[N+]=[N-])C(=O)NCc1ccccc1" ?
Result: 0.512

Request: # composite z-score lookup, item "CC(=O)Nc1cc(Br)ccc1C(=O)O"
Result: 0.0952

Request: GET /values?readout=composite z-score&item= CCCCCN1CC=CC23O[C@@H]4/C=C\CCCOC(=O)C4[C@H]2C(=O)N(CCCCCCO)[C@@H]3C1=O (some centres not stated)
Result: 0.599

Request: For the molecule shown here, O=C1C2C=CC(C(O)c3ccc(B(O)O)cc3)N(Nc3ccccc3)C2C(=O)N1c1ccccc1 (configuration not stated) , give the reported composite z-score.
Result: 0.56

Request: Give the measured composite z-score of "Cc1ccc(S[C@]2(C(=O)NC3CC3)CC(=O)N(C3CCCCC3)[C@@H]2c2ccc(CO)cc2I)cc1" .
Result: 0.104

----------
# experimentDescription: basal RPMI8226 mitochondrial membrane potential changes, profiling panel, cell-based, JC-1 fluorescence, 24 h, 100 nL compound (AID 1169); further: test concentration not given here
# experimentalContext: RPMI8226 myeloma, JC-1 mitochondrial potential fluorescence, higher = more signal
Class y: z-score at least 0.2. Class n: z-score below 0.2.

See these solved cases before continuing.
* O=C1C2C=CC(C(O)c3ccc(B(O)O)cc3)N(Nc3ccccc3)C2C(=O)N1c1ccccc1 (stereo not drawn) | n
* CC(C)N1C(=O)c2ccccc2[C@@H](C(=O)NCCCN(C)C)[C@@H]1c1ccc(CO)cc1 | y
* O=C1C[C@]2(c3ccc([N+](=O)[O-])cc3)C(=O)N(CC(F)(F)F)c3cc(CO)ccc3[C@H]2N1CC12CC3CC(CC(C3)C1)C2 | y
* COCCOC(=O)N1C(=O)[C@@]2(c3cc(C#CCC(C(=O)OC)C(=O)OC)ccc31)[C@H](c1ccccc1OCCO)N1[C@H](c3ccccc3)[C@H](c3ccccc3)OC(=O)[C@H]1[C@@H]2C(=O)N1CCc2cc(OC)c(OC)cc2C1 | n
* CCCCCN1CC=CC23O[C@@H]4/C=C\CCCOC(=O)C4[C@H]2C(=O)N(CCCCCCO)[C@@H]3C1=O (stereo partly drawn) | y
* C=C(C(=O)CC[C@H](OC(C)=O)c1ccc(OCCO)cc1)C(C)C | y

Request: Decide: z-score of O=C1OCCC=C[C@H]2OC34C=CCN(Cc5ccccc5)C(=O)[C@H]3N(CCCCCO)C(=O)[C@@H]4C12 (stereo partly drawn) >= 0.2?
Result: y

Request: hey, is z-score for this one >= 0.2? "CCOC(=O)C[C@H]1[C@H](OC(=O)c2ccc(-c3ccccc3)cc2)[C@@H](NC(=O)c2ccc(-c3ccccc3)cc2)c2cc(OCCCO)ccc2N1C(=O)Cc1ccc(OC)cc1"
Result: n

Request: Tell me whether z-score is at least 0.2 here: "COCCOC(=O)N1C(=O)[C@@]2(c3cc(C#CCNC(N)=O)ccc31)[C@H](C(=O)N1CCc3cc(OC)c(OC)cc3C1)[C@H]1C(=O)O[C@H](c3ccccc3)[C@H](c3ccccc3)N1[C@@H]2c1ccc(OCCO)cc1"
Result: n

----------
# systemName: Streptavidin (Streptomyces avidinii)
# experimentDescription: streptavidin binders on small-molecule microarray, primary screen, artefact control for SMM compound annotation, biophysical, 635/667 nm fluorescence (AID 1147);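 further: signal reflects streptavidin binding to arrayed compounds as a control protein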
# experimentalContext: streptavidin binding, higher = more signal
Hi all, reminder that labels come from composite z-score, split as bottom bin: < 0.05; middle bin: ≥ 0.05 and < 0.6; top bin: ≥ 0.6

Reference set, count: 5
- CCOC(=O)C[C@H]1[C@H](OC(=O)Cc2ccc3c(c2)OCO3)[C@@H](NC(=O)C2CCCCC2)c2cc(OCCCO)ccc2N1C(=O)Cc1ccc(OC)cc1: middle bin
- COCC1=C2[C@@H](CCc3ccccc3)OB(O)C[C@@H]2[C@@H]2C(=O)N(Cc3ccccc3)C(=O)[C@@H]2C1: middle bin
- [N-]=[N+]=NCc1ccccc1C[C@]1(C(=O)O)N=C(c2ccc(OCCCO)cc2)O[C@H]1c1ccccc1: top bin
- CC(C)CNC(=O)[C@@]1(c2ccc([N+](=O)[O-])cc2)CC(=O)N(CC23CC4CC(CC(C4)C2)C3)[C@@H]1c1ccc(CO)cc1: bottom bin
- C=C(COC)/C(=C/C[C@H](OC(=O)c1ccncc1)c1cccc(OCCO)c1)c1cc(C(=O)OC)ccc1OC: bottom bin

Request: Which bin, given its composite z-score, does "Cc1ccc(S[C@]2(C(=O)NCC(C)C)CC(=O)N(Cc3ccccc3Cl)[C@@H]2c2ccc(CO)cc2)cc1" occupy?
Result: bottom bin

Request: State the class of the molecule shown: "COCCCNC(=O)[C@@]1(c2ccc([N+](=O)[O-])cc2)CC(=O)N(CC23CC4CC(CC(C4)C2)C3)[C@@H]1c1ccc(CO)cc1"
Result: middle bin

----------
# System: Chordin-like protein 2 (CHRDL2)
# experimentDescription: CHRDL2 small-molecule binders, primary screen, biochemical, small-molecule microarray, 635 nm fluorescence (AID 1126);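 further: printed compound slides probed with Chrdl2 protein at 4 µg/mL for 1 h at 4 C; score merges 667 nm emission intensity with signal to noise over three replicate slides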
# experimentalContext: small-molecule microarray binding, fluorescence 635 nm; higher = more signal
measuredAttribute: composite z-score
Kindly provide the number alone.

* C=CC[C@@]1(C(=O)NCC(O)CO)N=C(c2ccc(OCCCO)cc2)O[C@@H]1c1ccccc1N=[N+]=[N-] (stereo partly specified) | -0.982

Let us move to another entry and its composite z-score.
Request: Consider the molecule shown here: "COCCOC(=O)N1C(=O)[C@@]2(c3cc(C#CC4=CCCCC4)ccc31)[C@H](C(=O)NC[C@H](O)c1ccccc1)[C@H]1C(=O)O[C@H](c3ccccc3)[C@H](c3ccccc3)N1[C@@H]2c1ccc(O)cc1" What is its recorded composite z-score?
Result: 1.12
